The origin of these recorded values is patent US20250353864A1.

# target.desc: EGFR L858R/T790M mutant (Homo sapiens (Human), UniProt P00533, L858R/T790M)
# Sequence (P00533 25-1210 T790M/L858R): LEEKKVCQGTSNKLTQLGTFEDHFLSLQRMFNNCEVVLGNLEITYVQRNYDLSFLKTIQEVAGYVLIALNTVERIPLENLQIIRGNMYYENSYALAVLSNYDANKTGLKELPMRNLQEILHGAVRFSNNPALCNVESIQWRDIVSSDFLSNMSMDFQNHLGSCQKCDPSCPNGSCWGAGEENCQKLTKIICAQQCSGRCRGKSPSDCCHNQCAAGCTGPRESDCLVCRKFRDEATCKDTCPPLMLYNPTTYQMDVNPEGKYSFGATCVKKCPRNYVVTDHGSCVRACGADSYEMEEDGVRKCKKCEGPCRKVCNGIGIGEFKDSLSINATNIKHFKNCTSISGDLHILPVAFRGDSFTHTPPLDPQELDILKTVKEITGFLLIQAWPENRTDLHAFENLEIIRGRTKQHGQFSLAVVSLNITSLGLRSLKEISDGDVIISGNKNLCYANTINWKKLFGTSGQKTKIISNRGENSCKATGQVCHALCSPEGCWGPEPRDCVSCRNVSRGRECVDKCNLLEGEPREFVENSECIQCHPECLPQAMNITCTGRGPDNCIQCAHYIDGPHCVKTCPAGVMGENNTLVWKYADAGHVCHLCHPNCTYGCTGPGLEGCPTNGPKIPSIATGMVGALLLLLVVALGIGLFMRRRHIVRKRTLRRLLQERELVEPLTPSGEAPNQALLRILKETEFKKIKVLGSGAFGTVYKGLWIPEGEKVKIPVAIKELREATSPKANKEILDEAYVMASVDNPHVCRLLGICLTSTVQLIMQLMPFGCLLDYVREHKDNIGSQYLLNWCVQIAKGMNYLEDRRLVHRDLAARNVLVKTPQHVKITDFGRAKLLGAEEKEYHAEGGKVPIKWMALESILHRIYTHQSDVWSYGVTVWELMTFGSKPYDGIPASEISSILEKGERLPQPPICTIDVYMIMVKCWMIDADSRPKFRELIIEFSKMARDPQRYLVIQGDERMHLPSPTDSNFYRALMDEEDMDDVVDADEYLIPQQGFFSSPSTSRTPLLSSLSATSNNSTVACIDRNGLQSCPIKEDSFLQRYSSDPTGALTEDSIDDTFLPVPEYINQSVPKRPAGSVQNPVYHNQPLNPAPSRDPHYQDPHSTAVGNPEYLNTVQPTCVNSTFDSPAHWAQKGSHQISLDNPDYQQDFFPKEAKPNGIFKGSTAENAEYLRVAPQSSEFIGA
# test.name: HotSpot radiometric kinase assay, EGFR L858R/T790M mutant
# test.settings: 10 μM ATP
pIC50: −log10 of the molar value.
Quick list: pIC50 per entry.

{"columns": ["molecule", "bound.sign", "pIC50"],
 "data": [
  ["Cn1ncc2c1OCCN1CC[C@H](C1)Oc1ccccc1/C=C/c1n[nH]c3ccc-2cc13", "=", 7.44],
  ["CC(C)Oc1nn(CCO)c2c1/C=C/c1n[nH]c3cc(F)c(cc13)-c1cnn(C)c1O[C@@H]1CCCN(C2)C1", "=", 7.19],
  ["CCOc1nn(CCO)c2c1/C=C/c1n[nH]c3ccc(cc13)-c1cnn(C)c1OC[C@H](CC)N(C)C2", "=", 8.03],
  ["Cn1ncc2c1COCCOc1ccccc1/C=C/c1n[nH]c3ccc-2cc13", "=", 6.60],
  ["Cc1nn([C@H]2CCOC[C@@H]2O)c2c1/C=C/c1n[nH]c3ccc(cc13)-c1cnn(C)c1OCCCO2 (racemic)", "<", 6.00],
  ["Cn1ncc2c1OCCN1CC[C@@H](Oc3ccc(F)cc3/C=C/c3n[nH]c4ccc-2cc34)C1=O", "=", 7.70],
  ["CCOc1nn(C)c2c1/C=C/c1n[nH]c3ccc(cc13)-c1cnn(C)c1O[C@@H]1CCN(C2)C1", "=", 9.10],
  ["C[C@H]1CN(C)Cc2c(c(OC3CN(S(C)(=O)=O)C3)nn2CCO)/C=C/c2n[nH]c3ccc(cc23)-c2cnn(C)c2O1", "=", 9.68],
  ["C[C@H]1CN(C)Cc2c(c(C#N)nn2C)/C=C/c2n[nH]c3ccc(cc23)-c2cnn(C)c2O1", "=", 8.81],
  ["Cc1nn(C)c2c1/C=C/c1n[nH]c3ccc(cc13)-c1cnn(C)c1O[C@@H](C)CN(C1CC1)C2", "=", 8.51],
  ["CN1CCN(Cc2ccc3c(c2)O[C@@H]2CCN(CCOc4c(cnn4C)-c4ccc5[nH]nc(c5c4)/C=C/3)C2=O)CC1", "=", 9.39],
  ["CCOc1nn(CCO)c2c1/C=C/c1n[nH]c3ccc(cc13)-c1c(C)nn(C)c1O[C@H](C)CN(C1CC1)C2", "=", 8.75],
  ["CCOc1nn(CC(C)(C)O)c2c1/C=C/c1n[nH]c3ccc(cc13)-c1cnn(C)c1O[C@@H](C)CN(CC)C2", "=", 9.51],
  ["Cc1nn(C)c2c1/C=C/c1n[nH]c3ccc(cc13)-c1cnn(C)c1O[C@@H](C)CN(C)[C@@H]2C (single isomer, unassigned)", "=", 9.39]
]}
